These data points were gathered from PubChem BioAssay (NCI).

Please provide measured TGI for the entries that follow.
Test system: ACHN renal
test_name: NCI tumour cell line growth inhibition, 48 h

CC(=O)c1nc(C#N)c(N)o1	> 100 µM

# batch size: 4; output TGI per entry
1. Cc1nc2cccc(F)c2c(=O)n1-c1nnc(C2CC2)s1
2. Clc1cc(-c2csc(Cl)c2)cs1
3. CC(C)S(=O)(=O)ON1C(=O)c2ccc([N+](=O)[O-])cc2C1=O
4. O=C(O)CNCc1c2ccccc2nc2ccccc12

Output:
1: > 10 µM; 2: > 100 µM; 3: > 100 µM; 4: > 100 µM

Provide reported TGI for each item, in the same order as listed.
1. COC1OC2COC(c3ccccc3)OC2C(OC(=S)c2ccccc2)C1O (centres undefined)
2. CC(=O)OCC12C(OC(C)=O)C[C@@H](C)C3(CC(c4ccoc4)OC3=O)C1CCC(OC(C)=O)C21CO1 (some centres undefined)
3. COC(=O)CCCCCCCCC(=O)c1c(C)[nH]c(/C=C2\N=C(c3ccc[nH]3)C=C2OC)c1C
4. CN(C)CC1CCCCCCCCCCC1=O (centres undefined)
5. Cc1cc(N)c2cc(NC(=O)CCCCCCCCC(=O)Nc3ccc4nc(C)cc(N)c4c3)ccc2n1
6. C[C@@H]1CC(=O)[C@@]2(C)[C@](O)(CCC3O[C@]32C)[C@@]12CC(c1ccoc1)OC2=O (some centres undefined)
7. Cn1cc(C2=C(c3cn(C)c4cc(Cl)ccc34)C(=O)NC2=O)c2ccccc21
8. O=C1CSC2=NC3=C(COC/C3=C\c3ccc(F)cc3)C(c3ccc(F)cc3)N12 (centres undefined)

Output:
1: > 100 µM; 2: > 100 µM; 3: > 72.7 µM; 4: > 100 µM; 5: > 100 µM; 6: > 100 µM; 7: > 25 µM; 8: > 100 µM

Each compound below has a reported value. Please supply its TGI.
1. CCOc1c(Cc2ccccc2)c(=O)n2c3ccccc3n3c(=O)n(C)c(=O)c1c23
2. O=C1CCc2c(sc3ncnc(Nc4cccc(Br)c4)c23)C1
3. CC1CC2OC(=N)C1(C#N)C2(C#N)C#N (centres undefined)
4. CC(=O)c1c2c(cc3c1CCC3)CCC2
5. CCOC(=O)/C=C/C(Br)=C(Br)/C=C/C(=O)OCC
6. CC(C)(CO)Nc1c(O)c2c(c(O)c1Cl)C(=O)C=CC2=O
7. Nc1ccc(Sc2ccc3c4c2cccc4c(=O)n2c4ccccc4nc32)cc1
8. COc1cc2ccc(C(=O)O)cc2cc1OC

Output:
1: > 100 µM; 2: 8.04 µM; 3: > 100 µM; 4: > 100 µM; 5: 25.8 µM; 6: 3.08 µM; 7: 10.2 µM; 8: > 100 µM

For each of the compounds below, state TGI.
1. c1ccc(-c2nn(-c3ccccc3)[n+](-c3ccccc3-c3ccccc3)n2)cc1
2. COC(=O)C([O][Ge]([CH3])([CH3])[CH3])c1ccccc1 (centres undefined)
3. COc1cc2cc(Oc3ccc(NC(=O)Nc4cc(C(F)(F)F)cc(C(F)(F)F)c4)cc3)c(C)nc2cc1OCCN1CCCCC1

Output:
["> 100 µM", "> 100 µM", "2.99 µM"]

###

Test system: UACC-62 melanoma
test_name: NCI tumour cell line growth inhibition, 48 h
Please respond with reported TGI for every item in the list.

Cc1cccc2c1C(=O)OC2(c1cccc2ccccc12)c1cccc2ccccc12	> 100 µM
CC(=O)c1nc(C#N)c(N)o1	> 100 µM
COC(=O)C([O][Ge]([CH3])([CH3])[CH3])c1ccccc1 (centres undefined)	> 100 µM

Provide reported TGI for each item, in the same order as listed.
1. CCOC(=O)N1c2c(c3ccccc3n2C(=O)OCC)C(=O)C(OC)N1C(=O)OCC (centres undefined)
2. COC(=O)CCCCCCCCC(=O)c1c(C)[nH]c(/C=C2\N=C(c3ccc[nH]3)C=C2OC)c1C
3. COc1nc2ncc([C@@H](O)[C@H](O)CO)nc2c(=O)[nH]1
4. O=C1/C(=C/c2ccccc2)CN(C(=O)Oc2ccccc2)C/C1=C\c1ccccc1
5. COc1ccc(C2C3=C(COC3=O)N(CCO)c3cc4c(cc32)CCC4)cc1OC (centres undefined)
6. COc1ccc(C2CCc3c(cnc4nc(N)nc(N)c34)C2)cc1 (centres undefined)

Output:
> 100 µM
> 82.9 µM
> 100 µM
> 100 µM
> 50 µM
> 100 µM
